Where do these numbers come from? They come from PubChem BioAssay.

- Test Name: probe aLefty1 binding on compound microarray – biochemical, small-molecule microarray, 635/667 nm fluorescence, primary screen (AID 1153);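 note: score merges spot fluorescence with signal-to-noise ratio from the scanned slide images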
- Condition Parameters: higher = more signal
composite z-score values by entry
When you answer, write just the number.

# lookup: composite z-score of CCCCN1CC=CC23O[C@@H]4C=CCCOC(=O)C4[C@H]2C(=O)N(CCCO)[C@@H]3C1=O (stereo partly drawn)
-0.321

Next:
# lookup: composite z-score of CO[C@H]1O[C@H](CO)[C@@H](OC(=O)Nc2ccc3c(c2)OCO3)[C@H](OC(=O)Nc2ccc3c(c2)OCO3)[C@H]1OC(=O)Nc1ccc2c(c1)OCO2
0.457

Try this compound next: CO[C@H]1O[C@H](CO)[C@@H](OC(=O)Nc2cccc(F)c2)[C@H](OC(=O)Nc2ccccc2-c2ccccc2)[C@@H]1OC(=O)Nc1ccccc1-c1ccccc1
0.257

* * *

- Test Name: compound effects on hepatocellular carcinoma cell viability – HepG2, calcein-AM fluorescence, 48 h, basal, profiling panel (AID 1164); note: test concentration not given here
- Condition Parameters: higher = more signal
Reported Endpoint: z-score
When you answer, write just the number.

Worked set:
# lookup: z-score of CN1C(=O)C2C=CC(C(O)C(c3ccccc3)c3ccccc3)N(Nc3ccccc3)C2C1=O (stereo not drawn)
-0.0678

Try this compound next: CN1C(=O)C2C=CC(C(O)c3ccc(Br)cc3)N(Nc3ccccc3)C2C1=O (stereo not drawn)
1.17

Try this compound next: COC(=O)[C@@]1(Cc2ccc(OC)cc2)[C@H]2c3cc(C(=O)N4CCCC4)n(CCc4ccccn4)c3C[C@H]2CN1C(=O)c1ccccc1
-0.946

Try this compound next: COC(=O)c1nc2oc1CC[C@@H](CO)NC(=O)N(C)Cc1cn(nn1)C[C@H](Cc1ccccc1)NC2=O
0.786

Try this compound next: O=C1C2C=CC(C(O)c3ccc(-c4ccccc4)s3)N(Nc3ccccc3F)C2C(=O)N1c1ccccc1 (stereo not drawn)
-0.297

Try this compound next: CCCC[C@H]1C[C@@H]1[C@@H]1N(P(=O)(c2ccccc2)c2ccccc2)[C@](CO)(c2ccccc2)CC12CC2
-1.96

Try this compound next: Cc1c(NC(=O)/C(C#N)=C/C=C/c2ccccc2)c(=O)n(-c2ccccc2)n1C
0.458

Next:
# lookup: z-score of COCCCNC(=O)[C@@]1(C)c2ccccc2C(=O)N(Cc2ccccc2)[C@H]1c1ccc(CO)cc1
-0.0853

* * *

- Test Name: growth of efflux-deficient E. coli DRC39 – strain DRC39, OD650, 24 h, E. coli filamentation inducers, primary screen (AID 1178);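 note: growth measured as culture turbidity by optical density at 650 nm; test concentration not given here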
- Condition Parameters: E. coli DRC39 acrAB, higher = more signal, called active from +8 up or from −8 down
Rule: z-score of -0.3 or more gives 1.0; anything lower gives 0.0.

Solved entries:
Is reported z-score greater than or equal to -0.3 here: Cn1c2c(c3ccccc31)C(=O)C1NC2C=CC1(C)C(=O)OCc1ccccc1 (stereo not given)
0.0

Try this molecule next: CC(C)CNC(=O)[C@@]1(C)c2ccccc2C(=O)N(C(C)C)[C@H]1c1ccc(CO)cc1
0.0

Try this molecule next: C=C(COC)C(=O)CC[C@H](OC(=O)c1cccnc1)c1ccccc1OCCO
0.0

Try this molecule next: O=C1O[C@H](c2ccccc2)[C@H](c2ccccc2)N2[C@H]1[C@@H](C(=O)N1CCCCCCC1)[C@]1(C(=O)Nc3ccc(C#CC4=CCCCC4)cc31)[C@H]2c1ccc(O)cc1
1.0

Now look at this entry.
Is reported z-score greater than or equal to -0.3 here: C=CC[C@@]1(C(N)=O)N=C(c2ccc(OCCCO)cc2)O[C@@H]1c1ccccc1N=[N+]=[N-]
1.0

* * *

- Test Name: blood-stage malaria parasite viability loss – strain 3D7, DAPI fluorescence, 100 nL, primary screen (AID 1184);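 note: parasites grown inside human red blood cells in medium with human serum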
- Condition Parameters: P. falciparum 3D7 growth, 3 d, higher = more signal
Reported Endpoint: z-score
When you answer, write just the number.

# lookup: z-score of CN(C)CCCC[C@@H]1NC(=O)[C@@H]2C[C@H](C(=O)NCCCCCCN)[C@H](c3ccc(O)cc3)N2C1=O
0.0094

Try this molecule next: CCCC[C@@H]1C[C@H]1[C@@H](NC(=O)c1ccco1)c1ccccc1
-1.46

Next:
# lookup: z-score of Cc1ccc(N2C(=O)c3ccccc3[C@@H](C(=O)NCC(C)C)[C@@H]2c2ccc(CO)cc2)nc1
0.524

Try this molecule next: C=C(CCCC)C(=O)CC[C@H](OC(=O)c1ccccc1-c1ccccc1C(=O)O)c1ccc(CO)o1
-0.714

Try this molecule next: C=CCCN(CC#C[C@H]1Oc2ccccc2S(=O)(=O)N2CCC[C@@H]12)S(=O)(=O)c1ccc(C)cc1
-1.53

* * *

- Test Name: hepatitis C replication reporter changes, two-sided – Huh7 cells, luciferase reporter, HCV replication inhibitor project, primary screen (AID 1109);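 note: huh7 hepatoma cells harbouring a luciferase neomycin HCV replicon reporter; luciferase luminescence as measure of HCV replicon replication; test concentration not given here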
- Condition Parameters: Huh7 HCV replicon luciferase reporter, 48 h; higher = more signal
Rule: z-score of -0.7 or more gives Met; anything lower gives Not met.

Is reported z-score greater than or equal to -0.7 here: COc1ccccc1CN1C(=O)c2ccccc2[C@](Cc2ccccc2I)(C(=O)NC2CC2)[C@@H]1c1ccc(CO)cc1
Not met

Try this molecule next: O=C(NCC(O)CO)[C@@]1(Cc2ccccc2)COC(c2ccc(OCCCO)cc2)=N1 (some centres not stated)
Not met

Now look at this entry.
Is reported z-score greater than or equal to -0.7 here: CCOC(=O)C=Cc1cccc(OC)c1O
Met

* * *

- Test Name: calcein-AM signal in unstimulated myeloma cells – cell-based, calcein-AM fluorescence, 48 h, PK04 Diversity Set, profiling panel (AID 1166);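 note: cells grown under basal conditions without added stimulus; test concentration not given here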
- Condition Parameters: RPMI8226 myeloma viability, higher = more signal
z-score values by entry

# lookup: z-score of C=CCN1Cc2ccccc2C[C@@]2(COC(c3ccc(OCCCO)cc3)=N2)C1=O
-2.52

Try this compound next: CCOC(=O)C1=C[C@@H](C(C)(C)C)N(S(=O)(=O)c2ccc(C)cc2)[C@H]1c1ccc(Cl)c(Cl)c1
-0.986

Try this compound next: COc1ccc([Si](C)(C)[C@@H]2[C@@H](CCn3cc([C@H](O)c4ccccc4)nn3)O[C@]3(C(=O)N(C)c4ccccc43)[C@H]2C)cc1
-3.85

Try this compound next: COC(=O)[C@@]1(Cc2ccc(OC)cc2)[C@H]2c3cc(C(=O)N4CCCC4)n(CCN4CCOCC4)c3C[C@H]2CN1C(=O)c1ccccc1
-1.16

* * *

- System Name: Follistatin-related protein 3 (Homo sapiens)
- Test Name: compounds binding follistatin-related protein 3 – biochemical, small-molecule microarray, 635 nm fluorescence, primary screen (AID 1105);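 note: score merges emission near 667 nm and signal to noise per printed spot across three slides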
- Condition Parameters: FSTL3 binding, higher = more signal
composite z-score values by entry

# lookup: composite z-score of O=C(CS)NCCCCCCNC(=O)[C@H]1C[C@H]2C(=O)N3CCC[C@H]3C(=O)N2[C@H]1c1ccc(O)cc1
0.972

Next:
# lookup: composite z-score of C=CCNC(=O)[C@H]1[C@@H]2C(=O)O[C@@H](c3ccccc3)[C@@H](c3ccccc3)N2[C@@H](c2ccc(OCCO)cc2)[C@]12C(=O)N(C(=O)OCCOC)c1ccc(C#CC3(O)CCCCCC3)cc12
1.48

Try this molecule next: C#C[C@H](O[Si](C#CCCCCCC)(C(C)C)C(C)C)c1ccccc1
-0.215

Try this molecule next: CN(C)CCCC[C@@H]1NC(=O)[C@H]2C[C@@H](C(=O)NCCCCCNC(=O)CS)[C@@H](c3ccc(O)cc3)N2C1=O
-1.39

Try this molecule next: COCC1=C([C@H](O)CCc2ccccc2)[C@H](CO)[C@@H]2C(=O)N(Cc3ccccc3)C(=O)[C@@H]2C1
0.265

Try this molecule next: COc1ccccc1CN1C(=O)c2ccccc2[C@](Cc2ccccc2I)(C(=O)NCc2ccccc2)[C@@H]1c1ccc(CO)cc1
-0.457

Try this molecule next: C=C(C(=O)CC[C@@H](OC(=O)c1cccnc1)c1ccc(CO)o1)C(C)C
0.933

Try this molecule next: CN1C(=O)C2C=CC(C(O)c3ccccc3)N(NC(=O)OC(C)(C)C)C2C1=O (centres undefined)
-0.0889

Try this molecule next: Cc1ccc(C(C)CC(O)C2C=CC3C(=O)NC(=O)C3N2Nc2ccccn2)o1 (centres undefined)
0.506

* * *

- Test system: Wnt5a (protein binding on small-molecule microarray)
- Test Name: small molecules binding Wnt5a protein – biophysical, small-molecule microarray, 635/667 nm fluorescence, primary screen (AID 1142);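 note: fluorescence read at 667 nm with signal to noise per printed feature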
- Condition Parameters: 635 nm fluorescence, higher = more signal
Rule: composite z-score of -0.1 or more gives Met; anything lower gives Not met.

Is reported composite z-score greater than or equal to -0.1 here: CN1C(=O)C2C=CC(C(O)c3ccccc3)N(NC(=O)OC(C)(C)C)C2C1=O (stereo not drawn)
Met

Try this compound next: O=C1OCCC=C[C@H]2OC34C=CCN(CCN5CCOCC5)C(=O)[C@H]3N(CCO)C(=O)[C@@H]4C12 (stereo partly drawn)
Not met

Try this compound next: O=c1cccc(-c2ccc3ccccc3c2)o1
Met

Next:
Is reported composite z-score greater than or equal to -0.1 here: C=CCN1C(=O)[C@@]2(O[C@@H](CCO)[C@H]([Si](C)(C)c3ccc(OC)cc3)[C@H]2C)c2cc(NC(C)=O)ccc21
Met

Try this compound next: Cc1cc(C)c(C(O)C2C=CC3C(=O)NC(=O)C3N2Nc2ccccn2)c(C)c1 (stereo not drawn)
Not met

Try this compound next: C=CCC(OC(C)=O)[C@@H]1[C@@H](N(Cc2ccc(-c3cccc(C(F)(F)F)c3)o2)C(=O)Cc2ccc(OC)cc2)c2cc(OCCCO)ccc2N1C(=O)Cc1ccc(OC)cc1 (stereo partly drawn)
Not met

Try this compound next: CC(C)N1C(=O)c2ccccc2[C@](C)(C(=O)NC2CC2)[C@@H]1c1ccc(CO)cc1
Met

Try this compound next: CN(C)CCCN1C(=O)[C@@]2(c3ccc([N+](=O)[O-])cc3)CC(=O)N(C3CCCCC3)[C@@H]2c2ccc(CO)cc21
Met
